System: IGROV1 ovarian
experiment notes: NCI tumour cell line growth inhibition, 48 h; in the data active means GI50 below about 0.43 µM; inactive means the rest
Labels: T = active, F = inactive

record smiles	target desc	label
CC(=O)[CH-]C(=O)c1ccccc1.CC(=O)[CH-]C(=O)c1ccccc1.COc1cccc([O-])c1[O-].[Ti+4]	IGROV1 ovarian	F
Cc1cc(N2CCN(C)CC2)nc(NCc2cc(Nc3ccnc4cc(Cl)ccc34)ccc2F)n1	IGROV1 ovarian	F
Cc1onc(-c2c(F)cccc2Cl)c1-c1ncc(-c2ccc(Cl)cc2)o1	IGROV1 ovarian	F
C=CCn1c(=O)c2cnc(Nc3ccc(N4CCN(C)CC4)cc3)nc2n1-c1ccc2c(n1)[C@@](O)(CC)CC2	IGROV1 ovarian	T
CN(C)c1ccc2c(c1)CN1C(=O)c3ccccc3C1=N2	IGROV1 ovarian	F
COc1ccc(-c2nn(-c3ccc(NC(=O)c4ccc(Cl)c(C(F)(F)F)c4)cc3)cc2-c2ccncc2)cc1Cl	IGROV1 ovarian	F
Cc1oc2nc[nH]c(=O)c2c1C(=O)/C=C/c1ccc(Cl)cc1	IGROV1 ovarian	F
CC(=O)Nc1ccc(-c2c3nc(c(-c4cc5ccccc5[n+](C)c4)c4ccc([nH]4)c(-c4ccc(NC(C)=O)cc4)c4nc(c(-c5cc6ccccc6[n+](C)c5)c5ccc2[nH]5)C=C4)C=C3)cc1	IGROV1 ovarian	F
O=[N+]([O-])c1cc([N+](=O)[O-])c(Cl)c(Cl)c1Cl	IGROV1 ovarian	F
CN(CCC#N)c1ccc(/C=C(\C#N)c2cccc(C(F)(F)F)c2)cc1	IGROV1 ovarian	F
O=C(Cn1c(=O)c(-c2ccccc2)nc2ccccc21)c1ccc(Cl)cc1	IGROV1 ovarian	F
FC(F)(F)c1nc2ccc(SSc3ccc4nc(C(F)(F)F)[nH]c4c3)cc2[nH]1	IGROV1 ovarian	F

###

Listing: TGI of selected compounds
System: NCI-H460 lung
experiment notes: NCI tumour cell line growth inhibition, 48 h
measurement kind: TGI

compound	measured value
Cc1c(C(=O)CC(=O)C(=O)Nc2c(C(C)C)cccc2C(C)C)[n+](=O)c2ccccc2n1[O-]	7.02 µM
CCSc1c(C)c2c(n(Cc3ccc(OC)cc3)c1=O)Cc1ccccc1C2	27.7 µM
O=C(COc1ccc(/C=C2\Oc3ccccc3C2=O)cc1)Nc1nccs1	> 100 µM
CN1CCC(CNC(=O)CCCCCCCCC(=O)NCC2(c3ccccc3)CCN(C)CC2)(c2ccccc2)CC1	> 100 µM
CC1(C)OC(=O)[C@@](C)([C@H](O)c2ccccc2)O1	> 100 µM
Cn1cc(C2=C(c3c4n(c5ccccc35)CCCC4)C(=O)NC2=O)c2ccccc21	> 25 µM
COc1cc2cc[n+](C)c(Cc3ccccc3)c2cc1OC	> 100 µM
O=c1[nH]c(=O)n(C2CC(O)C(CO)O2)cc1NN=NCCc1ccccc1 (stereo not drawn)	> 100 µM
[C-]#[O+].[Cl][Sn]([Cl])[Cl].[Cl][Sn]([Cl])[Cl].[Pt].c1ccc([PH+](c2ccccc2)c2ccccc2)cc1.c1ccc([PH+](c2ccccc2)c2ccccc2)cc1	> 100 µM
Cc1cc2cccnc2c2ncccc12	2.54 µM
Cc1csc(/C=N/NC(=O)c2nnn(-c3ccnc4c(C(F)(F)F)cccc34)c2C)c1	> 100 µM
Cc1nc2ccccc2c(=O)n1-c1n[nH]c2ccccc12	> 100 µM
CC1CC(C)[C@H](O)C([C@H](O)CC2CC(=O)N(C)C(=O)C2)C1 (stereo partly drawn)	> 100 µM
O=C(c1ccco1)C1CC(c2ccc3ccccc3c2O)=NN1 (stereo not drawn)	> 100 µM
Cc1nc(Cl)c(Cl)c(Cl)n1	6.33 µM
O=C(/C=C1\C(=O)N(Cc2ccc([N+](=O)[O-])cc2)c2ccccc21)c1ccc(OCCN2CCCCC2)cc1	3.68 µM
O=C(/C=C/c1ccccc1)c1c[nH]c2ccccc2c1=O	5.09 µM
C=CCn1c(=O)c2cnc(Nc3ccc(N4CCN(C)CC4)cc3)nc2n1-c1ccc2c(n1)[C@@](O)(CC)CC2	16.7 µM
O=C(O)CN=C(C(=NCC(=O)O)c1ccccc1)c1ccccc1	> 100 µM
CN1C(OCc2ccccc2)c2c(ccc3c2OCO3)C2C=Cc3cc4c(cc3C21)OCO4 (stereo not drawn)	3.09 µM
CC1(C)CCC[C@@]2(C)C1C[C@H](O)[C@@]1(C)O[C@@](C)([C@H](O)CO)CCC21 (stereo partly drawn)	> 100 µM
CC(=O)NC1=C(C)C(=O)c2c(nc3n2CCC3OC(=O)c2ccccc2)C1=N (stereo not drawn)	3.07 µM
N#CCCN(CCC#N)C(=O)c1cccc(C(=O)N(CCC#N)CCC#N)c1	> 64.8 µM
CN(Cc1cnc(N)nc1N)c1ccc(C(=O)O)cc1	> 100 µM
COc1cc(N2CCN(C(C)C)CC2)ccc1Nc1nc(Nc2cccc3ncccc23)c2cc[nH]c2n1	> 23.5 µM
O=C(Cn1c(=O)c(-c2ccccc2)nc2ccccc21)c1ccc(Cl)cc1	> 100 µM
O=C(/C=C/C12c3ccccc3C(c3ccccc31)C1C(=O)N(c3ccccc3)C(=O)C12)c1ccc(Cl)cc1 (stereo not drawn)	3.7 µM
Cc1c(/C=N/NC(=S)Nc2cccc(Cl)c2)c(=O)n(-c2ccccc2)n1C	21.8 µM
O=C(CBr)N1CCC2(CC1)SSC1(CCN(C(=O)CBr)CC1)S2	3.48 µM
CCn1nc(C)c2c1C(=O)NC(C)C(=O)N2 (stereo not drawn)	> 100 µM
O=c1oc2cc(N=Cc3ccccc3Cl)ccc2c2ccccc12	> 100 µM
CCC[C@H](O)[C@@H](CNc1cc(NC(C)=O)nc(NC(C)=O)n1)N(Cc1ccccc1)Cc1ccccc1	> 100 µM
C/C(=N/NC(=O)c1ccncc1)c1ccc(NC(=O)C(=O)Nn2c(=S)[nH]c3ccccc3c2=O)cc1	> 100 µM
O=C(Cc1nc2ccccc2c(=O)n1-c1c(Cl)cccc1Cl)c1ccncc1	52.2 µM
OC(CC(CC(O)(C(F)(F)Cl)C(F)(F)Cl)=NNc1ccccc1)(C(F)(F)Cl)C(F)(F)Cl	7.85 µM
CN(C)c1ccc2c(c1)CN1C(=O)c3ccccc3C1=N2	> 100 µM
O=C(C/C(=N\NC(=O)C[n+]1ccccc1)C(=O)Nc1nc2ccc([N+](=O)[O-])cc2s1)CC(c1ccccc1)c1c(O)c2ccccc2oc1=O (stereo not drawn)	> 100 µM
Cc1cc(=O)oc2c(CN3CCCCC3)c(O)ccc12	> 100 µM

###

System: LOX IMVI melanoma
experiment notes: NCI tumour cell line growth inhibition, 48 h
Below, each entry is listed alongside its reported TGI.

molecule	comparator	TGI, µM
Oc1[nH]c2ccccc2c1N=NC(=S)N1CCCCC1	=	3.2
COc1c(C2=NC(C(C)C)CO2)ccc2ccccc12 (stereo unspecified)	>	100
Cc1oc2nc[nH]c(=O)c2c1C(=O)/C=C/c1ccc(Cl)cc1	=	3.32
CCNC(C)(C)C(SS)c1ccc(Br)cc1 (stereo unspecified)	=	60.1
CCOC(=O)N1CCN(c2c(C)nc(C)[nH]c2=O)CC1	>	100
O=C1c2ccccc2C(=O)C2C1C1C(=O)c3ccccc3C(=O)C21 (stereo unspecified)	>	100

###

System: SK-MEL-5 melanoma
experiment notes: NCI tumour cell line growth inhibition, 48 h

compound	comparator	TGI / µM
CCOC(=O)N1CCN(c2c(C)nc(C)[nH]c2=O)CC1	>	100
O=C1c2ccccc2NC(c2cc(Cl)cc(Cl)c2O)N1CCc1ccccn1 (stereo unspecified)	>	100
COC(=O)Nc1nc2ccc(Oc3ccc4nc(NC(=O)OC)[nH]c4c3)cc2[nH]1	=	4.19
CCSc1c(C)c2c(n(Cc3ccc(OC)cc3)c1=O)Cc1ccccc1C2	=	77.4
CCOC(=O)[C@@H]1C[C@H]1c1ccc(O)c(O)c1	=	31.3
Oc1[nH]c2ccccc2c1N=NC(=S)N1CCCCC1	=	1.03

###

Items are presented alongside their recorded GI50.
System: SK-OV-3 ovarian
experiment notes: NCI tumour cell line growth inhibition, 48 h

molecule	GI50
Cc1oc2nc[nH]c(=O)c2c1C(=O)/C=C/c1ccc(Cl)cc1	3.09 µM
Cc1c(C)c2c(c(C)c1NC(=O)/C=C\C(=O)O)CCC(C)(CCCC(C)CCCC(C)CCCC(C)C)O2 (configuration not stated)	1.73 µM
CN(C)c1ccc2c(c1)CN1C(=O)c3ccccc3C1=N2	> 100 µM
O=C(/C=C/c1ccccc1)c1c[nH]c2ccccc2c1=O	2.53 µM
COc1cc(N2CCN(C(C)C)CC2)ccc1Nc1nc(Nc2cccc3ncccc23)c2cc[nH]c2n1	5.58 µM
O=C(Cn1c(=O)c(-c2ccccc2)nc2ccccc21)c1ccc(Cl)cc1	46.4 µM
COc1ccc2c(c1)[C@]1(C[C@H]1c1ccc3c(/C=C/c4ccc(CN5C[C@@H](C)O[C@@H](C)C5)cc4)n[nH]c3c1)C(=O)N2	15.1 µM
O=C(/C=C/C12c3ccccc3C(c3ccccc31)C1C(=O)N(c3ccccc3)C(=O)C12)c1ccc(Cl)cc1 (configuration not stated)	5.28 µM
COc1cc(-c2n/c(=C\c3c(O)[nH]c4ccc(Cl)cc34)cc3c2=Nc2ccccc2-3)cc(OC)c1OC	2.16 µM
CC1=CC[C@@H]2C(C)(C)C(=O)CC[C@@]2(C)[C@@H]1COc1ccc2ccc(=O)oc2c1	31.9 µM
CN1CCN(c2ccc(-c3ccc4ncc(C#N)c(Nc5ccc(F)c(Cl)c5)c4c3)cc2)CC1	2.9 µM
O=C(COc1ccc(/C=C2\Oc3ccccc3C2=O)cc1)Nc1nccs1	> 100 µM
